# Test system: human platelets
# test: Platelet aggregation (turbidimetric)
# Assay type: cell-based
# test_settings: platelet rich plasma
measurement_label: pIC50
As a rule, pIC50 stands for the negative log10 of the concentration, concentration in M.

Param item = C=c1c(=O)[nH]c2n1Cc1cc(OCCCC(=O)N(C)C3CCCCC3)ccc1N=2 ; retrieve measured pIC50.
6.82
